Cited source: paper PMC3136713

Readings of inhibition at 100 µg/mL for the listed molecules
target: COX-1 (Ovis aries); construct: gene PTGS1; experiment: O2 uptake cyclooxygenase assay, single concentration; assay type: biochemical; details: read-out: % inhibition at 100 μg/mL
Sequence (P05979 25-600): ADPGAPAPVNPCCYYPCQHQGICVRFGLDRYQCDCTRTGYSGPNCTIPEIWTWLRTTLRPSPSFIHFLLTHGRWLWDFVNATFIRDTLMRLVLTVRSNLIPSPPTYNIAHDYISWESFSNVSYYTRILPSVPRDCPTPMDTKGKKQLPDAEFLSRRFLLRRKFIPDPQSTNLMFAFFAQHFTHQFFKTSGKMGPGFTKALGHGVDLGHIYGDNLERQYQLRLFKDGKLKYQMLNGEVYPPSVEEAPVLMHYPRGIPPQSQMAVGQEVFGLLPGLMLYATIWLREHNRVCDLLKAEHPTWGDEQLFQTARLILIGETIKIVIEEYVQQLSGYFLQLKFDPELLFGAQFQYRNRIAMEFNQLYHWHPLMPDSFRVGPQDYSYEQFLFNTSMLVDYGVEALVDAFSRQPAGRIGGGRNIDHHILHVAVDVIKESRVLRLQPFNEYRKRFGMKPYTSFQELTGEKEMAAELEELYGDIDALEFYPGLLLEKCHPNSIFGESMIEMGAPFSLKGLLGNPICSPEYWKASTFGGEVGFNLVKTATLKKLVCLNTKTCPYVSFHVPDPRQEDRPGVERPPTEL
The figure you give is taken to be in %; do not add the unit.

{"columns": ["molecule", "unit-of-measurement", "inhibition at 100 µg/mL"],
 "data": [
  ["COc1ccccc1C=O", "%", 83],
  ["O=Cc1cccc(O)c1O [compound 5, 2,3-dihydroxy benzaldehyde]", "%", 68],
  ["COc1cc(C=O)cc(OC)c1", "%", 85]
]}

Moving on to another molecule below.
Ask: Suppose we examine the molecule O=Cc1cc(O)cc(O)c1 [compound 9, 3,5-dihydroxy benzaldehyde] ; what inhibition at 100 µg/mL value has been reported?
Result: 82
